Quick reference: MIC of the listed items.
- Tested on: Pseudomonas aeruginosa
- experiment.summary: Antibacterial activity against Pseudomonas aeruginosa MTCC 2453 incubated for 24 hrs by well diffusion method
- Format: functional
- condition.label: MTCC 2453, 24 h

>  <compound>
Clc1ccc(C2C3=C(N=C4SC=C(c5ccc(Br)cc5)N42)c2ccccc2SC3)cc1 (stereo unspecified)

>  <MIC>
> 125 µg/mL

$$$$
>  <compound>
Cc1ccc(C2C3=C(N=C4SC=C(c5ccc(Br)cc5)N42)c2ccccc2SC3)cc1 (stereo unspecified)

>  <MIC>
> 125 µg/mL

$$$$
>  <compound>
O=c1oc2ccccc2cc1C1=CSC2=NC3=C(CSc4ccccc43)C(c3ccc(Cl)cc3)N12 (stereo unspecified)

>  <MIC>
> 125 µg/mL

$$$$
>  <compound>
O=[N+]([O-])c1ccc(C2=CSC3=NC4=C(CSc5ccccc54)C(c4ccc(Cl)cc4)N23)cc1 (stereo unspecified)

>  <MIC>
> 125 µg/mL

$$$$
>  <compound>
Cc1ccc(C2=CSC3=NC4=C(CSc5ccccc54)C(c4ccccc4)N23)cc1 (stereo unspecified)

>  <MIC>
> 125 µg/mL

$$$$
>  <compound>
COc1ccc(C2=CSC3=NC4=C(CSc5ccccc54)C(c4ccc(Cl)cc4)N23)cc1 (stereo unspecified)

>  <MIC>
> 125 µg/mL

$$$$

* * *

- Test system: Staphylococcus aureus
- experiment.summary: Antibacterial activity against Staphylococcus aureus MLS16 MTCC 2940 incubated for 24 hrs by well diffusion method
- Format: functional
- condition.label: MLS16 MTCC 2940, 24 h
reported.endpoint: MIC

>  <compound>
COc1ccc(C2=CSC3=NC4=C(CSc5ccccc54)C(c4ccc(Cl)cc4)N23)cc1 (stereo not given)

>  <reported.endpoint>
MIC

>  <result>
15.6 µg/mL

$$$$
>  <compound>
Cc1ccc(C2C3=C(N=C4SC=C(c5cc6ccccc6oc5=O)N42)c2ccccc2SC3)cc1 (stereo not given)

>  <reported.endpoint>
MIC

>  <result>
31.2 µg/mL

$$$$
>  <compound>
O=[N+]([O-])c1cccc(C2C3=C(N=C4SC=C(c5ccc(Cl)cc5)N42)c2ccccc2SC3)c1 (stereo not given)

>  <reported.endpoint>
MIC

>  <result>
> 125 µg/mL

$$$$
>  <compound>
O=c1oc2ccccc2cc1C1=CSC2=NC3=C(CSc4ccccc43)C(c3ccccc3)N12 (stereo not given)

>  <reported.endpoint>
MIC

>  <result>
31.2 µg/mL

$$$$
>  <compound>
O=C(O)c1cn(C2CC2)c2cc(N3CCNCC3)c(F)cc2c1=O

>  <reported.endpoint>
MIC

>  <result>
0.9 µg/mL

$$$$
>  <compound>
C1=C(c2ccccc2)N2C(=NC3=C(CSc4ccccc43)C2c2ccccc2)S1 (stereo not given)

>  <reported.endpoint>
MIC

>  <result>
> 125 µg/mL

$$$$
>  <compound>
Clc1ccc(C2C3=C(N=C4SC=C(c5ccccc5)N42)c2ccccc2SC3)cc1 (stereo not given)

>  <reported.endpoint>
MIC

>  <result>
15.6 µg/mL

$$$$
>  <compound>
Cc1ccc(C2C3=C(N=C4SC=C(c5ccc(Br)cc5)N42)c2ccccc2SC3)cc1 (stereo not given)

>  <reported.endpoint>
MIC

>  <result>
> 125 µg/mL

$$$$
>  <compound>
Brc1ccc(C2=CSC3=NC4=C(CSc5ccccc54)C(c4ccccc4)N23)cc1 (stereo not given)

>  <reported.endpoint>
MIC

>  <result>
> 125 µg/mL

$$$$
>  <compound>
Clc1ccc(C2=CSC3=NC4=C(CSc5ccccc54)C(c4ccccc4)N23)cc1 (stereo not given)

>  <reported.endpoint>
MIC

>  <result>
> 125 µg/mL

$$$$
>  <compound>
O=[N+]([O-])c1ccc(C2=CSC3=NC4=C(CSc5ccccc54)C(c4ccc(Cl)cc4)N23)cc1 (stereo not given)

>  <reported.endpoint>
MIC

>  <result>
> 125 µg/mL

$$$$
>  <compound>
Clc1ccc(C2C3=C(N=C4SC=C(c5ccc(Br)cc5)N42)c2ccccc2SC3)cc1 (stereo not given)

>  <reported.endpoint>
MIC

>  <result>
> 125 µg/mL

$$$$
>  <compound>
O=c1oc2ccccc2cc1C1=CSC2=NC3=C(CSc4ccccc43)C(c3cccc([N+](=O)[O-])c3)N12 (stereo not given)

>  <reported.endpoint>
MIC

>  <result>
> 125 µg/mL

$$$$
>  <compound>
O=c1oc2ccccc2cc1C1=CSC2=NC3=C(CSc4ccccc43)C(c3ccc(Cl)cc3)N12 (stereo not given)

>  <reported.endpoint>
MIC

>  <result>
> 125 µg/mL

$$$$
>  <compound>
Cc1ccc(C2=CSC3=NC4=C(CSc5ccccc54)C(c4ccccc4)N23)cc1 (stereo not given)

>  <reported.endpoint>
MIC

>  <result>
3.9 µg/mL

$$$$

Source of measurements: ChEMBL document CHEMBL3817812
